experiment: Cmax in CD1 mouse at 250 mg/kg; format: ADME, organism-based; parameters: dose 250 mg/kg; details: in vivo
measured.parameter: Cmax (µM)

Some entries whose results are on file:
COc1ccc(-c2c(C)nn3c(NCCN4CCOCC4)cc(C)nc23)cc1OC :: 52
Cc1nc(NC(=O)[C@H](C)CC(F)(F)F)sc1-c1ccc(N)nc1 :: 55

(I) Cc1nc(NC(=O)C(C)(C)CC(F)(F)F)sc1-c1ccc(N)nc1
(II) Cc1nc(NC(=O)[C@@H](C)CC(F)(F)F)sc1-c1ccc(N)nc1
I would appreciate it if you could say which entry, I or II , has the lower Cmax value. // caller expects the label of the chosen entry
II
(II: 26 µM, I: 59 µM)

###

test: Total clearance in rat at 5 mg/kg, po and 2 mg/kg, iv; type: ADME, organism-based; conditions: in vivo
measured.parameter: clearance (mL/min/kg)

COc1ccc(-c2c(C)nn3c(NCCN4CCOCC4)cc(C)nc23)cc1OC :: 18

(a) Cc1nc(NC(=O)C(C)CC(F)(F)F)sc1-c1ccc(N)nc1 (stereo not drawn)
(b) CO[C@H]1CC[C@@H](C(=O)Nc2nc(C)c(-c3ccc(N)nc3)s2)CC1
Consider a and b . Which of these has its clearance at a higher number? // caller expects the label of the chosen entry
b
(b: 70 mL/min/kg, a: 40 mL/min/kg)

###

assay: Half life in rat at 5 mg/kg, po and 2 mg/kg, iv; format: ADME, organism-based; conditions: in vivo
measured.parameter: half-life (h)

Cc1nc(NC(=O)C(C)CC(F)(F)F)sc1-c1ccc(N)nc1 (stereo not drawn) :: 1.7

(P) CO[C@H]1CC[C@@H](C(=O)Nc2nc(C)c(-c3ccc(N)nc3)s2)CC1
(Q) COc1ccc(-c2c(C)nn3c(NCCN4CCOCC4)cc(C)nc23)cc1OC
I would appreciate it if you could say which entry, P or Q , has the lower half-life value. // caller expects the label of the chosen entry
P
(P: 0.38 h, Q: 2.8 h)

###

experiment: Permeability across apical to basolateral side in human Caco2 cells; assay type: ADME, cell-based; settings: Caco-2, read-out: permeability
measured.parameter: Papp A→B (×10⁻⁶ cm/s)

Cc1nc(NC(=O)[C@H](C)CC(F)(F)F)sc1-c1ccc(N)nc1 :: 44

(A) Cc1nc(NC(=O)Cc2nc(-c3ccccc3)c(C)o2)sc1-c1ccc(N)nc1
(B) Cc1nc(NC(=O)[C@@H](C)CC(F)(F)F)sc1-c1ccc(N)nc1
I would appreciate it if you could say which entry, A or B , has the lower Papp A→B value. // caller expects the label of the chosen entry
A
(A: 26 ×10⁻⁶ cm/s, B: 42 ×10⁻⁶ cm/s)

###

assay: AUC in CD1 mouse at 50 mg/kg; type: ADME, organism-based; design: dose 50 mg/kg; conditions: plasma
measured.parameter: AUC (µM·h)

Cc1nc(NC(=O)[C@H](C)CC(F)(F)F)sc1-c1ccc(N)nc1 :: 44

(a) COc1ccc(-c2c(C)nn3c(NCCN4CCOCC4)cc(C)nc23)cc1OC
(b) Cc1nc(NC(=O)C(C)(C)CC(F)(F)F)sc1-c1ccc(N)nc1
Consider a and b . Which of these has its AUC at a higher number? // caller expects the label of the chosen entry
b
(b: 514 µM·h, a: 45 µM·h)

###

test: physchem; conditions: buffer, pH 7.4
measured.parameter: logD

Nc1ccc(-c2cnc(NC(=O)CN(Cc3ccccc3)C(=O)c3ccncc3)s2)cn1 :: 2.6
Nc1ccc(-c2cnc(NC(=O)CN(Cc3ccccc3)C(=O)c3ccncc3)s2)cc1 :: 2.9
Cc1nc(NC(=O)[C@H]2CC[C@@H](C(F)(F)F)CC2)sc1-c1ccc(N)nc1 :: 3.8
Cc1nc(NC(=O)[C@@H](C)CC(F)(F)F)sc1-c1ccc(N)nc1 :: 3.2

###

assay: Total clearance in CD1 mouse at 2 mg/kg, iv; type: ADME, organism-based; parameters: dose 2 mg/kg, route intravenous; conditions: in vivo
measured.parameter: clearance (mL/min/kg)

Cc1nc(NC(=O)[C@H](C)CC(F)(F)F)sc1-c1ccc(N)nc1 :: 91
Cc1nc(NC(=O)C(C)(C)CC(F)(F)F)sc1-c1ccc(N)nc1 :: 58
Cc1nc(NC(=O)[C@@H](C)CC(F)(F)F)sc1-c1ccc(N)nc1 :: 71

###

assay: Cmax in rat at 5 mg/kg, po and 2 mg/kg, iv; format: ADME, organism-based; conditions: in vivo
measured.parameter: Cmax (µM)

CO[C@H]1CC[C@@H](C(=O)Nc2nc(C)c(-c3ccc(N)nc3)s2)CC1 :: 1.5
Cc1nc(NC(=O)C(C)CC(F)(F)F)sc1-c1ccc(N)nc1 (stereo not drawn) :: 1.9
COc1ccc(-c2c(C)nn3c(NCCN4CCOCC4)cc(C)nc23)cc1OC :: 2

###

test: AUC in rat at 5 mg/kg, po and 2 mg/kg, iv; type: ADME, organism-based; conditions: plasma
measured.parameter: AUC (µM·h)

COc1ccc(-c2c(C)nn3c(NCCN4CCOCC4)cc(C)nc23)cc1OC :: 10

(A) Cc1nc(NC(=O)C(C)CC(F)(F)F)sc1-c1ccc(N)nc1 (stereo not drawn)
(B) CO[C@H]1CC[C@@H](C(=O)Nc2nc(C)c(-c3ccc(N)nc3)s2)CC1
Consider A and B . Which of these has its AUC at a higher number? // caller expects the label of the chosen entry
A

###

experiment: Cmax in CD1 mouse at 50 mg/kg; assay type: ADME, organism-based; set-up: dose 50 mg/kg; conditions: in vivo
measured.parameter: Cmax (µM)

(P) Cc1nc(NC(=O)C(C)(C)CC(F)(F)F)sc1-c1ccc(N)nc1
(Q) Cc1nc(NC(=O)[C@@H](C)CC(F)(F)F)sc1-c1ccc(N)nc1
I would appreciate it if you could say which entry, P or Q , has the lower Cmax value. // caller expects the label of the chosen entry
P

###

assay: AUC in CD1 mouse at 5 mg/kg; type: ADME, organism-based; design: dose 5 mg/kg; details: plasma
measured.parameter: AUC (µM·h)

Some entries whose results are on file:
Cc1nc(NC(=O)[C@@H](C)CC(F)(F)F)sc1-c1ccc(N)nc1 :: 4
Cc1nc(NC(=O)[C@H](C)CC(F)(F)F)sc1-c1ccc(N)nc1 :: 2.7

(I) COc1ccc(-c2c(C)nn3c(NCCN4CCOCC4)cc(C)nc23)cc1OC
(II) Cc1nc(NC(=O)C(C)(C)CC(F)(F)F)sc1-c1ccc(N)nc1
I would appreciate it if you could say which entry, I or II , has the lower AUC value. // caller expects the label of the chosen entry
I
(I: 3.6 µM·h, II: 208 µM·h)

###

assay: physchem; settings: buffer, pH 7.4
measured.parameter: logD

CO[C@H]1CC[C@@H](C(=O)Nc2nc(C)c(-c3ccc(N)nc3)s2)CC1 :: 2.8

(1) Cc1nc(NC(=O)C2(C)CCCCC2)sc1-c1ccc(N)nc1
(2) Cc1nc(NC(=O)CN2C(=O)OC[C@H]2C(C)C)sc1-c1ccc(N)cc1
I would appreciate it if you could say which entry, 1 or 2 , has the lower logD value. // caller expects the label of the chosen entry
2

###

assay: Cmax in CD1 mouse at 5 mg/kg; type: ADME, organism-based; set-up: dose 5 mg/kg; settings: in vivo
measured.parameter: Cmax (nM)

(A) Cc1nc(NC(=O)[C@H](C)CC(F)(F)F)sc1-c1ccc(N)nc1
(B) Cc1nc(NC(=O)C(C)(C)CC(F)(F)F)sc1-c1ccc(N)nc1
I would appreciate it if you could say which entry, A or B , has the lower Cmax value. // caller expects the label of the chosen entry
B
(B: 500 nM, A: 1800 nM)

###

assay: physchem; conditions: buffer, pH 7.4
measured.parameter: logD

Cc1nc(NC(=O)CN(Cc2ccccc2)C(=O)c2ccncc2)sc1-c1ccc(N)nc1 :: 2.8
Cc1nc(NC(=O)C(C)(C)CC(F)(F)F)sc1-c1ccc(N)nc1 :: 3.4
Cc1nc(NC(=O)Cc2nc(-c3ccccc3)c(C)o2)sc1-c1ccc(N)nc1 :: 4
Cc1nc(NC(=O)[C@H](C)CC(F)(F)F)sc1-c1ccc(N)nc1 :: 3.2
CC(=O)N1[C@@H](c2ccccc2)CC[C@H]1C(=O)Nc1ncc(-c2ccc(N)cc2)s1 :: 3.2
COc1ccc(-c2c(C)nn3c(NCCN4CCOCC4)cc(C)nc23)cc1OC :: 2.7
Cc1nc(NC(=O)C(C)CC(F)(F)F)sc1-c1ccc(N)nc1 (configuration not stated) :: 2.9
